These measurements were taken from patent US20230049752A1.

- Measured Target: human Claudin-6 (CLDN6) (human) (UniProt P56747)
- Assay Overview: FACS, 1.5 ug Ab, 293T clone expressing human CLDN6 (2nd Ab only 768.07)
Metric Name: FACS fluorescence

Query string: So what's the measured FACS fluorescence for this one? AB9-chim (antibody, V domains shown) VH: EVQLQQSGPELVKPGASVKMSCKASGYRFTDYNMHWVKQSHGKSLEWIGYINPNNGGTNYNQNFKGKATLTVNKSSSTAYMELRSLTSEDSAAYYCARDYLYFFDCWGQGTTLTVSS VL: DIQMTQSPASQSASLGESVTITCLASQTIGTWLAWYQQKPGKSPQLLIYAAASLADGVPSRFSGSGSGTRFSFKISSLQAEDFVSYYCQQLYSIPRTFGGGTKLEIK
Result string: 72000

Query string: Moving on to the next binder: AB4-4 (antibody, V domains shown, humanized) VH: QVQLVQSGAEVKKPGASVKMSCKASGYTFTSYTMHWIRQAPGQGLEWIGYINPSSTYTHYAQKFQGRATLTADTSTSTAYMELSSLRSEDTAVYYCSRGELGGFAYWGQGTLVTVSS VL: DVVMTQSPLSLPVTLGQPASISCRSSQSLVHSDGNTYLNWYQQRPGQSPRLLIYKVSNRFSGVPDRFSGSGSGTDFTLKISRVEAEDVGVYYCSQSTHVPYTFGQGTKLEIK
Result string: 49000

Query string: Another binder to look at: AB11-chim (antibody, V domains shown) VH: DVQLVESGGGLVQPRGSRKLSCAASGFTFSSFGMHWVRQAPEKGLEWVAYISSDSRTIYYADTVKGRFTISRDNPTNTLFLQMTSLRSEDTAMYYCARDYGRTYEAYWGQGTLVTVSA VL: DIVLTQSPASLAVSLGQRATISCRASKSVSTSGYSYIHWYQQKPGQPPKLLIYLASNLESGVPARFSGSGSGTDFTLNIHPVEEEDAATYYCQHSRELPLTFGAGTKLELK
Result string: 3490

Query string: Then this binder: AB3-2 (antibody, V domains shown, humanized) VH: EVQLLESGGGLVQPGGSMRLSCAASGFTFSNYWMNWVRQAPGKGLEWVAQIRLKSDNYATHYADSVKGRFTISRDDSKNTVYLQMNSLRAEDTGVYYCNDGPPSGCWGQGTLLTVSS VL: DIQMTQSPSSLSASVGDRVTITCRISENIYSYLAWYQQKPGKAPKLLIYNAKILVEGVPSRFSGSGSGTDFTLTISSLQPEDFATYYCQHHYTVPWTFGQGTKLEIK
Result string: 396000

Query string: Now the binder AB4-8 (antibody, V domains shown, humanized) VH: QVQLVQSGAEVKKPGASVKVSCKASGYTFTSYTMHWVRQAPGQGLEWMGYINPSSTYTHYIKKFKDRVTMTADTSTSTVYMELSSLRSEDTAVYYCSRGELGGFAYWGQGTLVTVSS VL: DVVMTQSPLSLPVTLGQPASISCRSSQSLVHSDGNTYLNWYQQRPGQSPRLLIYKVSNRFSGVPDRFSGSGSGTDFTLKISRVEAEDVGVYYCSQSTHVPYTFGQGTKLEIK
Result string: 77600

Query string: Try this binder too: AB4-12 (antibody, V domains shown, humanized) VH: QVQLVQSGAEVKKPGASVKMSCKASGYTFTSYTMHWIRQAPGQGQEWIGYINPSSTYTHYIKKFKDRATLTADKSTSTAYMELSSLRSEDTAVYYCSRGELGGFAYWGQGTLVTVSS VL: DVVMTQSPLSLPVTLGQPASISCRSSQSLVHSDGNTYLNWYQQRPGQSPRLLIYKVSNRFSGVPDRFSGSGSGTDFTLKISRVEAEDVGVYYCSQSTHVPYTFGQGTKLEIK
Result string: 86200

Query string: What do you have for AB3-7 (antibody, V domains shown, humanized; also called AB23; humanized AB3-7) VH: EVQLLESGGGLVQPGGSMRLSCAASGFTFSNYWMNWVRQAPGKGLEWVAQIRLKSDNYATHYADSVKGRFTISRDDSKNTVYLQMNSLRAEDTGVYYCNDGPPSGSWGQGTLLTVSS VL: DIQMTQSPSSLSASVGDRVTITCRISENIYSYLAWYQQKPGKAPKLLVYNAKILVEGVPSRFSGSGSGTDFTLTISSLQPEDFGTYYCQHHYTVPWTFGQGTKLEIK ?
Result string: 169000

Query string: Repeat for the following binder: AB11-2 (antibody, V domains shown, humanized) VH: EVQLVESGGGLVQPGGSLRLSCAASGFTFSSFGMHWVRQAPGKGLEWVAYISSDSRTIYYADSVKGRFTISRDNAKNSLYLQMNSLRAEDTAVYYCARDYGRTYEAYWGQGTLVTVSS VL: DIVMTQSPDSLAVSLGERATINCRASKSVSTSGYSYIHWYQQKPGQPPKLLIYLASNLESGVPDRFSGSGSGTDFTLTISSLQAEDVAVYYCQHSRELPLTFGQGTKLEIK
Result string: 2560

Query string: Same again, this time with AB4-6 (antibody, V domains shown, humanized) VH: QVQLVQSGAEVKKPGASVKMSCKASGYTFTSYTMHWIRQAPGQGLEWIGYINPSSTYTHYAQKFQGRATLTADKSTSTAYMELSSLRSEDTAVYYCSRGELGGFAYWGQGTLVTVSS VL: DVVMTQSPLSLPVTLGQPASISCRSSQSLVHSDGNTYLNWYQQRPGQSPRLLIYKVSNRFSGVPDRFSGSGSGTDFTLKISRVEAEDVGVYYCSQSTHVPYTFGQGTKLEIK
Result string: 29200

Query string: // repeat for AB1-3 (antibody, V domains shown, humanized) VH: QVQLVQSGAEVKKPGASVKVSCKASGYTFTTYTMHWVRQAPGQGLEWMGFINPSSGYTDYAQKFQGRVTMTADTSTSTVYMELSSLRSEDTAVYYCANGDYYVAYWGQGTLVTVSS VL: DIQMTQSPSSLSASVGDRVTITCTASSSVSSTYFHWYQQKPGKAPKLLIYSTSNLASGVPSRFSGSGSGTDYTLTISSLQPEDFATYYCHQYHRSPLTFGQGTKLEIK and report
Result string: 142000
